# credit: ChEMBL document CHEMBL3044755

# System: Nicotiana tabacum
# PROCEDURE SUMMARY: Induction of systemic acquired resistance activity in TMV infected-Nicotiana tabacum (tobacco) leaves at 50 ug/ml
# Type: functional
READOUT NAME: Activity (%)
Entry rule: numbers only, all in %.

Cc1ccc(N(C(=O)c2nnsc2C)C(C(=O)NC(C)C)c2ccccc2F)cc1F (centres undefined) = 59
Cc1cccc(C(C(=O)NC2CCCCC2)N(C(=O)c2nnsc2C)c2ccc(C)c(F)c2)c1 (centres undefined) = 40
Cc1ccc(N(C(=O)c2nnsc2C)C(C(=O)NC(C)C)c2ccccc2C)cc1Cl (centres undefined) = 37
Cc1ccc(N(C(=O)c2nnsc2C)C(C(=O)NC(C)C)c2ccc(O)cc2)cc1Cl (centres undefined) = 23

# query: Activity | item Cc1ccc(N(C(=O)c2nnsc2C)C(C(=O)NC2CCCCC2)c2cccc(Cl)c2)cc1F (centres undefined) | system: Nicotiana tabacum 30

And the next one, Cc1ccc(N(C(=O)c2nnsc2C)C(C(=O)NC(C)C)c2ccccc2C(F)(F)F)cc1F (centres undefined) ? 30

###

# Test system: Tobacco mosaic virus
# PROCEDURE SUMMARY: In vivo antiviral activity against Tobacco mosaic virus (TMV) infected tobacco leaves assessed as inactivation effect at 100 ug/ml co-treated with virus for 30 min before inoculation onto leaves measured at 2-3 days after viral challenge
# Format: functional
READOUT NAME: Activity (%)
Entry rule: numbers only, all in %.

Solved entries (count: 3):
Cc1cccc(C(C(=O)NC2CCCCC2)N(C(=O)c2nnsc2C)c2ccc(C)c(F)c2)c1 (centres undefined) = 38
Cc1cccc(C(C(=O)NC(C)C)N(C(=O)c2nnsc2C)c2ccc(C)c(Cl)c2)c1 (centres undefined) = 72
Cc1ccc(N(C(=O)c2nnsc2C)C(C(=O)NC(C)C)c2ccc(O)cc2)cc1F (centres undefined) = 51

# query: Activity | item Cc1ccc(N(C(=O)c2nnsc2C)C(C(=O)NC(C)C)c2ccccc2F)cc1F (centres undefined) | system: Tobacco mosaic virus 73

And the next one, Cc1ccc(N(C(=O)c2nnsc2C)C(C(=O)NC2CCCCC2)c2ccc(F)cc2)cc1F (centres undefined) ? 69

###

# Test system: Nicotiana tabacum
# PROCEDURE SUMMARY: Induction of systemic acquired resistance activity in TMV infected-Nicotiana tabacum (tobacco) leaves at 50 ug/ml
# Type: functional
Label key: class 1 means Activity under 40%; class 0 means Activity of 40% or more.

Criterion: Activity strictly below 40%. Is it met by Cc1ccc(NC(=O)c2snnc2C)cc1Cl [TIADINIL] ? class 0

And the next one, Cc1ccc(N(C(=O)c2nnsc2C)C(C(=O)NC(C)C)c2ccc(O)cc2)cc1F (stereo not given) ? class 1

And the next one, NC(=O)c1ncn([C@@H]2O[C@H](CO)[C@@H](O)[C@H]2O)n1 [RIBAVIRIN] ? class 1

And the next one, Cc1ccc(N(C(=O)c2nnsc2C)C(C(=O)NC(C)C)c2ccc([N+](=O)[O-])cc2)cc1F (stereo not given) ? class 0

###

# Test system: Colletotrichum lagenaria
# PROCEDURE SUMMARY: Fungicidal activity against Colletotrichum lagenaria at 50 ug/ml by growth inhibition method
# Format: functional
# DETAILS: read-out: GI
inhibition of growth at 50 µg/mL values, listed per item
Entry rule: numbers only, all in %.

Cc1ccc(N(C(=O)c2nnsc2C)C(C(=O)NC2CCCCC2)c2ccccc2)cc1F (configuration not stated) = 0
Cc1ccc(N(C(=O)c2nnsc2C)C(C(=O)NC2CCCCC2)c2cccc(O)c2)cc1F (configuration not stated) = 0
Cc1ccc(N(C(=O)c2nnsc2C)C(C(=O)NC(C)C)c2ccc(F)cc2)cc1Cl (configuration not stated) = 17

Would you kindly share the measured inhibition of growth at 50 µg/mL for Cc1ccc(N(C(=O)c2nnsc2C)C(C(=O)NC(C)C)c2ccccc2)cc1Cl (configuration not stated) ? 11

And the next one, Cc1ccc(N(C(=O)c2nnsc2C)C(C(=O)NC2CCCCC2)c2ccccc2F)cc1F (configuration not stated) ? 57

And the next one, Cc1ccc(N(C(=O)c2nnsc2C)C(C(=O)NC(C)C)c2ccc([N+](=O)[O-])cc2)cc1F (configuration not stated) ? 0

And the next one, Cc1ccc(N(C(=O)c2nnsc2C)C(C(=O)NC2CCCCC2)c2cccc(F)c2)cc1F (configuration not stated) ? 43

And the next one, Cc1ccc(N(C(=O)c2nnsc2C)C(C(=O)NC(C)C)c2ccccc2Cl)cc1F (configuration not stated) ? 14

And the next one, Cc1ccc(N(C(=O)c2nnsc2C)C(C(=O)NC2CCCCC2)c2ccccc2Cl)cc1F (configuration not stated) ? 0

And the next one, Cc1ccc(N(C(=O)c2nnsc2C)C(C(=O)NC(C)C)c2ccccc2[N+](=O)[O-])cc1Cl (configuration not stated) ? 10

And the next one, Cc1ccc(N(C(=O)c2nnsc2C)C(C(=O)NC(C)C)c2ccccc2O)cc1F (configuration not stated) ? 50

And the next one, Cc1ccc(N(C(=O)c2nnsc2C)C(C(=O)NC(C)C)c2ccc([N+](=O)[O-])cc2)cc1Cl (configuration not stated) ? 4

And the next one, Cc1ccc(N(C(=O)c2nnsc2C)C(C(=O)NC(C)C)c2ccc(O)cc2)cc1F (configuration not stated) ? 0

And the next one, Cc1ccc(N(C(=O)c2nnsc2C)C(C(=O)NC(C)C)c2cccc(F)c2)cc1F (configuration not stated) ? 57
